Measured pIC50 accompanies every entry in the list below.
# assay_target: recombinant human Myt1 (full length PKMYT1) (Homo sapiens, UniProt Q99640)
# Sequence (Q99640 whole entry): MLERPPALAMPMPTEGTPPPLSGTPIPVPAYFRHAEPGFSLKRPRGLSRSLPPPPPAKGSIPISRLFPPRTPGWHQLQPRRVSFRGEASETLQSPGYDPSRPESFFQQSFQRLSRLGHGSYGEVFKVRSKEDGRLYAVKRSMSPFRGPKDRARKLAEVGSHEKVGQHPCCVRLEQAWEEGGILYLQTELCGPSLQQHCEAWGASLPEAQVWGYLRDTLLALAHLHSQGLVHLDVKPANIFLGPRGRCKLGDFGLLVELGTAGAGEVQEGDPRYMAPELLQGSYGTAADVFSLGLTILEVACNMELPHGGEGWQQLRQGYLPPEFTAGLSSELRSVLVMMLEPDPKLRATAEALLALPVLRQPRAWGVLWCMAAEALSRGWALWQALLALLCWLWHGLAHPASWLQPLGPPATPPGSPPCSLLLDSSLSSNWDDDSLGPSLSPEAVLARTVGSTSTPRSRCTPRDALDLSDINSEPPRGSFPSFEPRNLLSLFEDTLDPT
# run_description: ADP-Glo assay (Myt1 kinase activity)
pIC50: −log10 of the molar value.
observable: pIC50

1) Cc1c(N2CCC2)cnc2c(-c3ccc(F)c4[nH]ncc34)c(N)c(=O)[nH]c12 [Example 117] :: 7.83
2) Cc1cc2[nH]c(=O)c(N)c(-c3ccc(F)c4[nH]ncc34)c2nc1C#CC(C)O (stereo not drawn) [Example 074] :: 7.96
3) COc1ncc(F)c2[nH]c(=O)c(N)c(-c3ccc(F)c4[nH]ncc34)c12 [Example 170] :: 7.90

====

Measured IC50 accompanies every entry in the list below.
# assay_target: recombinant human Myt1 (full length PKMYT1) (Homo sapiens, UniProt Q99640)
# run_description: ADP-Glo assay (Myt1 kinase activity)
observable: IC50 (nM)

1) Cc1cc2[nH]c(=O)c(N)c(-c3ccc(F)c4[nH]ncc34)c2nc1C1CC1 :: 10.4
2) COc1cc(C)cc2[nH]c(=O)c(N)c(-c3ccc(F)c4[nH]ncc34)c12 :: 16
3) Cc1nc(Cl)c2c(-c3ccc(F)c4[nH]ncc34)c(N)c(=O)[nH]c2c1C :: 11.5
4) Cc1c(C2CC2(C)C)cnc2c(-c3ccc(F)c4[nH]ncc34)c(N)c(=O)[nH]c12 (centres unmarked) :: 12.3
5) COc1ncc(C)c2[nH]c(=O)c(N)c(-c3ccc(F)c4[nH]ncc34)c12 :: 10.9
6) Cc1c(F)cnc2c(-c3ccc(F)c4[nH]ncc34)c(N)c(=O)[nH]c12 :: 14
7) COc1c(C)cnc2c(-c3ccc(F)c4[nH]ncc34)c(N)c(=O)[nH]c12 :: 17.9

====

# run_description: Human microsome stability assay
# condition_details: 1 μM compound, 0.5 mg/mL liver microsomal protein, 1 mM NADPH, 37° C., 0-30 minutes
observable: Clearance of Human microsome (L/h/kg)

1) Cc1cc(Cl)c2[nH]c(=O)c(N)c(-c3ccc(F)c4[nH]ncc34)c2n1 [Example 090] :: 0.369
2) Nc1c(-c2cccc3[nH]ncc23)c2ncc(C3CC3)cc2[nH]c1=O [Example 034] :: 0.369
3) Cc1nc(C2CC2)cc2[nH]c(=O)c(N)c(-c3ccc(F)c4[nH]ncc34)c12 [Example 166] :: 0.369
4) Nc1c(-c2ccc(F)c3[nH]ncc23)c2nccc(Cl)c2[nH]c1=O [Example 050] :: 0.369
5) Nc1c(-c2cc(F)cc3[nH]ncc23)c2ncc(Cl)cc2[nH]c1=O [Example 036] :: 0.369
6) CCOc1cnc(C)c2[nH]c(=O)c(N)c(-c3ccc(F)c4[nH]ncc34)c12 [Example 184] :: 0.372
7) Cc1cnc2c(-c3ccc(Cl)c4[nH]ncc34)c(N)c(=O)[nH]c2c1C [Example 146] :: 0.369
8) Cc1c(C#N)cnc2c(-c3ccc(F)c4[nH]ncc34)c(N)c(=O)[nH]c12 [Example 118] :: 0.369

====

# assay_target: recombinant human Myt1 (full length PKMYT1) (Homo sapiens)
# run_description: ADP-Glo assay (Myt1 kinase activity)
pIC50: −log10 of the molar value.
Measured pIC50 accompanies every entry in the list below.
observable: pIC50

1. Cc1c(CC2CC2)cnc2c(-c3ccc(F)c4[nH]ncc34)c(N)c(=O)[nH]c12 :: 7.76
2. Cc1cc2[nH]c(=O)c(N)c(-c3ccc(F)c4[nH]ncc34)c2nc1OCCN(C)C :: 7.76
3. Cc1cc2[nH]c(=O)c(N)c(-c3ccc(F)c4[nH]ncc34)c2nc1OC1CCC1 :: 7.97
4. Cc1cc2[nH]c(=O)c(N)c(-c3ccc(F)c4[nH]ncc34)c2cc1C :: 7.57
5. Cc1ncc(OC(F)F)c2c(-c3ccc(F)c4[nH]ncc34)c(N)c(=O)[nH]c12 :: 7.94
6. Cc1cc2[nH]c(=O)c(N)c(-c3ccc(F)c4[nH]ncc34)c2nc1-c1cccs1 :: 7.89
7. Cc1c(S(C)(=O)=O)cnc2c(-c3ccc(F)c4[nH]ncc34)c(N)c(=O)[nH]c12 :: 7.96
8. Cc1nc(C#N)c2c(-c3ccc(F)c4[nH]ncc34)c(N)c(=O)[nH]c2c1C :: 7.81
9. Cc1cc2[nH]c(=O)c(N)c(-c3ccc(F)c4[nH]ncc34)c2nc1-c1nccs1 :: 7.93
10. Cc1cc2[nH]c(=O)c(N)c(-c3ccc(F)c4[nH]ncc34)c2cc1Br :: 7.80
11. Cc1cc(Cl)nc2c(-c3ccc(F)c4[nH]ncc34)c(N)c(=O)[nH]c12 :: 7.85
12. Cc1cc2[nH]c(=O)c(N)c(-c3ccc(F)c4[nH]ncc34)c2nc1C#N :: 7.84
13. Cc1c(-c2ccnnc2)cnc2c(-c3ccc(F)c4[nH]ncc34)c(N)c(=O)[nH]c12 :: 7.76
14. CCOc1cnc2c(-c3ccc(F)c4[nH]ncc34)c(N)c(=O)[nH]c2c1C :: 7.93
15. Cc1c(OCC(F)(F)F)cnc2c(-c3ccc(F)c4[nH]ncc34)c(N)c(=O)[nH]c12 :: 7.85
16. Cc1cc2[nH]c(=O)c(N)c(-c3ccc(F)c4[nH]ncc34)c2nc1C(F)(F)F :: 7.60
17. CCOC(=O)COc1nc2c(-c3ccc(F)c4[nH]ncc34)c(N)c(=O)[nH]c2cc1C :: 7.75
18. Cc1cc2[nH]c(=O)c(N)c(-c3ccc(F)c4[nH]ncc34)c2nc1N1CCOCC1 :: 7.73

====

# assay_target: recombinant human Myt1 (full length PKMYT1) (Homo sapiens, UniProt Q99640)
# run_description: ADP-Glo assay (Myt1 kinase activity)
observable: IC50

1. CCCOc1cnc(C)c2[nH]c(=O)c(N)c(-c3ccc(F)c4[nH]ncc34)c12 :: 15.3 nM
2. Cc1nc(C2CC2)cc2[nH]c(=O)c(N)c(-c3ccc(F)c4[nH]ncc34)c12 :: 14.7 nM
3. Cc1cc2c(-c3ccc(F)c4[nH]ncc34)c(N)c(=O)[nH]c2nc1C :: 22.3 nM
4. C#Cc1nc2c(-c3ccc(F)c4[nH]ncc34)c(N)c(=O)[nH]c2c(Cl)c1C :: < 10 nM
